src = ChEMBL document CHEMBL5230136

# Protocol Description: Antiproliferative activity against human U87 cells assessed as reduction in cell viability by MTT assay
# Format: functional, cell-based, U-87MG ATCC
# Condition Set: U-87 MG
# IC50 per record follows

[
  {
    "Compound": "N#CC1=C(N)Oc2c(c(=O)oc3ccc(Br)cc23)C12C(=O)Nc1ccccc12 (centres undefined)",
    "IC50 / µM": 78
  },
  {
    "Compound": "N#CC1=C(N)Oc2c(c(=O)oc3ccccc23)C12C(=O)N(CCCCCCCCCCBr)c1ccccc12 (centres undefined)",
    "IC50 / µM": 39
  },
  {
    "Compound": "N#CC1=C(N)Oc2c(c(=O)oc3ccccc23)C12C(=O)N(CCCCBr)c1ccccc12 (centres undefined)",
    "IC50 / µM": 78
  }
]

---

# System: Phytophthora
# Protocol Description: Antimicrobial activity against Phytophthora assessed as reduction in microbial growth
# Format: functional
# Design: concentration or dose not given beside the values
Measured Property: Activity (%)

[
  {
    "Molecule": "CC(=O)N1C(c2ccccc2)Cc2c(c(=O)oc3c2ccc2ccccc23)C1c1ccccc1 (stereo unspecified)",
    "Value Observed": 0
  },
  {
    "Molecule": "O=c1oc2c(ccc3ccccc32)c2c1C(c1ccccc1)NC(c1ccccc1)C2 (stereo unspecified)",
    "Value Observed": 83
  },
  {
    "Molecule": "CN1C(c2ccccc2)Cc2c(c(=O)oc3c2ccc2ccccc23)C1c1ccccc1 (stereo unspecified)",
    "Value Observed": 0
  },
  {
    "Molecule": "Cc1ccc2c3c(c(=O)oc2c1)C(c1ccccc1)NC(c1ccccc1)C3 (stereo unspecified)",
    "Value Observed": 83
  },
  {
    "Molecule": "Cc1ccc2c3c(c(=O)oc2c1)C(c1ccccc1)N(C)C(c1ccccc1)C3 (stereo unspecified)",
    "Value Observed": 0
  },
  {
    "Molecule": "CC(=O)N1C(c2ccccc2)Cc2c(c(=O)oc3cc(C)ccc23)C1c1ccccc1 (stereo unspecified)",
    "Value Observed": 83
  }
]

---

# System: MES-SA
# Protocol Description: Cytotoxicity against human MES-SA cells assessed as reduction in cell viability incubated for 72 hrs by MTT assay
# Assay type: functional, cell-based
pIC50: −log10 of the molar value.

[
  {
    "Molecule": "O=[Se](O)O [SODIUM SELENITE]",
    "pIC50": 4.54
  },
  {
    "Molecule": "CN1CCN(Cc2[se]c3c(c2Br)c(=O)oc2ccccc23)CC1",
    "pIC50": 5.03
  }
]

---

# inhibition zone (IZ) per record follows
# System: Serratia marcescens
# Protocol Description: Antibacterial activity against Serratia marcescens assessed as zone of inhibition
# Format: functional

[
  {
    "Compound": "CC1(C)S[C@@H]2[C@H](NC(=O)[C@H](N)c3ccccc3)C(=O)N2[C@H]1C(=O)O [AMPICILLIN]",
    "Experimental Target": "Serratia marcescens",
    "inhibition zone (IZ), mm": 26
  },
  {
    "Compound": "CC1c2c(c3ccccc3oc2=O)Oc2ncn(C)c(=N)c21 (centres undefined)",
    "Experimental Target": "Serratia marcescens",
    "inhibition zone (IZ), mm": 19
  },
  {
    "Compound": "CC1C(C#N)=C(N)Oc2c1c(=O)oc1ccccc21 (centres undefined)",
    "Experimental Target": "Serratia marcescens",
    "inhibition zone (IZ), mm": 18
  },
  {
    "Compound": "CC1c2c(c3ccccc3oc2=O)Oc2ncn3nc(-c4ccccc4)nc3c21 (centres undefined)",
    "Experimental Target": "Serratia marcescens",
    "inhibition zone (IZ), mm": 20
  },
  {
    "Compound": "CC1C2=C(N=CNC2N)Oc2c1c(=O)oc1ccccc21 (centres undefined)",
    "Experimental Target": "Serratia marcescens",
    "inhibition zone (IZ), mm": 20
  },
  {
    "Compound": "O=C1CN=C2C3=C(N=CN2N1)Oc1c(c(=O)oc2ccccc12)C3",
    "Experimental Target": "Serratia marcescens",
    "inhibition zone (IZ), mm": 21
  },
  {
    "Compound": "O=c1oc2ccccc2c2c1C(c1ccc(Cl)cc1)c1c(ncn3nc(CCl)nc13)O2 (centres undefined)",
    "Experimental Target": "Serratia marcescens",
    "inhibition zone (IZ), mm": 23
  },
  {
    "Compound": "CCOC(=O)c1nc2c3c(ncn2n1)Oc1c(c(=O)oc2ccccc12)C3c1ccc(Cl)cc1 (centres undefined)",
    "Experimental Target": "Serratia marcescens",
    "inhibition zone (IZ), mm": 25
  },
  {
    "Compound": "CC1c2c(c3ccccc3oc2=O)Oc2ncn3nc(CCl)nc3c21 (centres undefined)",
    "Experimental Target": "Serratia marcescens",
    "inhibition zone (IZ), mm": 21
  }
]
